Test system: Saccharomyces cerevisiae
TEST_PROTOCOL: protein stability index of tFT-peptide fusion (C-terminal peptide) (PSI (0-1 scale)); higher = more stable (slower turnover)
CONDITION_NOTES: genetic background: wild type; temperature: 30 C
protein stability index reference

Previously resolved entries follow.
RYFSFNVSSCLD: 0.767
APHPPPPDPPLP: 0.697
DIHVNLHKSRKM: 0.626
PRAPRPHPLTNF: 0.673
GGRWNRNSGRGG: 0.693

(Q) Param readout= protein stability index; system= Saccharomyces cerevisiae; entry= `MTRGSAPELWLL` ; returns value.
(A) 0.655

(Q) Param readout= protein stability index; system= Saccharomyces cerevisiae; entry= `YEGPSTLVYHVR` ; returns value.
(A) 0.915

(Q) Param readout= protein stability index; system= Saccharomyces cerevisiae; entry= `CCFVLDLSASLL` ; returns value.
(A) 0.625

(Q) Param readout= protein stability index; system= Saccharomyces cerevisiae; entry= `TVKYVVSTRAFI` ; returns value.
(A) 0.627

(Q) Param readout= protein stability index; system= Saccharomyces cerevisiae; entry= `AFRKRTFKQESC` ; returns value.
(A) 0.642

###

Tested on: Saccharomyces cerevisiae
TEST_PROTOCOL: protein stability index of tFT-peptide fusion (C-terminal peptide) (PSI (0-1 scale)); higher = more stable (slower turnover)
CONDITION_NOTES: genetic background: wild type; temperature: 30 C
MEASURED_QUANTITY: protein stability index
Returns: the value as a bare number; no unit string appended.

EDNRTSEMFVFY: 0.753
WISVRIFISCFF: 0.267
FCVLLFCAVSDL: 0.317

(Q) // lookup protein stability index for `LVLPASSPCLFF`
(A) 0.647

(Q) // lookup protein stability index for `CPALYMPPPVLV`
(A) 0.259

###

protein stability index reference
Test system: Saccharomyces cerevisiae
TEST_PROTOCOL: protein stability index of tFT-peptide fusion in wild type (PSI (0-1 scale)); higher = more stable (slower turnover)
CONDITION_NOTES: genetic background: wild type
Returns: the value as a bare number; no unit string appended.

Previously resolved entries follow.
PDKRNHLIVLLN: 0.148
CPVSLPILLFFR: 0.0943
VRGAVGGWRNVG: 0.364
RVTRLGAIYFRI: 0.317
PSLAASFWRVNG: 0.167

(Q) // lookup protein stability index for `LVVYDSCVACIN`
(A) 0.368

(Q) // lookup protein stability index for `LVVHLSCVACIN`
(A) 0.0147

(Q) // lookup protein stability index for `GLYYCSVGCWFR`
(A) 0.249

###

Tested on: Saccharomyces cerevisiae
TEST_PROTOCOL: protein stability index of tFT-peptide fusion (C-terminal peptide) (PSI (0-1 scale)); higher = more stable (slower turnover)
CONDITION_NOTES: genetic background: wild type; temperature: 30 C
Would you mind classing the entries by protein stability index? Ranges: band 1 (below 0.6), band 2 (0.6 to below 0.7), band 3 (0.7 or more)

MVGGVLLSGCRF: band 2
IMGGLRHRIEVY: band 1
EMTWGSIWPERH: band 3

Shifting focus to the sequence that follows.
(Q) Which of the defined bands does the recorded protein stability index of `PDCLSLCFSLFP` sit within?
(A) band 2

###

protein stability index reference
Tested on: Saccharomyces cerevisiae
TEST_PROTOCOL: protein stability index of tFT-peptide fusion (C-terminal peptide) (PSI (0-1 scale)); higher = more stable (slower turnover)
CONDITION_NOTES: genetic background: wild type; temperature: 30 C
Returns: the value as a bare number; no unit string appended.

Previously resolved entries follow.
DSEEKKSKKSKK [CBF5 C-terminal 12 aa]: 0.678
YVKNLLTRFFTR [FRT1 C-terminal 12 aa]: 0.732

(Q) // lookup protein stability index for QSLPPTLKVNRL [RPL38 C-terminal 12 aa]
(A) 0.659

(Q) // lookup protein stability index for VLYIILYYIILY [YGL024W C-terminal 12 aa]
(A) 0.181

(Q) // lookup protein stability index for RVRTLARKHLSK [TRS20 C-terminal 12 aa]
(A) 0.686

(Q) // lookup protein stability index for YKQREYYTGVAW [ERG28 C-terminal 12 aa]
(A) 0.694

(Q) // lookup protein stability index for NTAGQKPTEYHY [APA2 C-terminal 12 aa]
(A) 0.702

(Q) // lookup protein stability index for KVSPAAAAKKAL [RPS26B C-terminal 12 aa]
(A) 0.67

(Q) // lookup protein stability index for CLSGGLLRKIPK [TMH18 C-terminal 12 aa]
(A) 0.686

(Q) // lookup protein stability index for ASVIPGGCLGNL [ZPS1 C-terminal 12 aa]
(A) 0.685

(Q) // lookup protein stability index for LYEHGIKKFDDL [JIP5 C-terminal 12 aa]
(A) 0.721

(Q) // lookup protein stability index for QDYVKDRHHGLK [NUP157 C-terminal 12 aa]
(A) 0.679

###

Tested on: Saccharomyces cerevisiae
TEST_PROTOCOL: protein stability index of tFT-peptide fusion (C-terminal peptide) (PSI (0-1 scale)); higher = more stable (slower turnover)
CONDITION_NOTES: genetic background: wild type; temperature: 30 C
MEASURED_QUANTITY: protein stability index
Returns: the value as a bare number; no unit string appended.

VFLPVMVFFTFS: 0.282
ILDRRPRTFALV: 0.113
CVISLVTAVRLF: 0.426
VFFGLYLVTFTS: 0.202
AYSVIPSLALLP: 0.632
SQSNQSIIRKNV: 0.36
VEQLLYIKATNV: 0.29
TEVGAWLLLCRC: 0.277
FLASLCFFPLLC: 0.372
SPSSLPRPLFLS: 0.163

(Q) // lookup protein stability index for `CVGLYCLFVLLG`
(A) 0.161

(Q) // lookup protein stability index for `YFLFLRLVFLFF`
(A) 0.178

(Q) // lookup protein stability index for `AFWLFSGIARLA`
(A) 0.277

(Q) // lookup protein stability index for `TFLVWSLMAGDR`
(A) 0.474

(Q) // lookup protein stability index for `IGMVSELLLFYP`
(A) 0.667

(Q) // lookup protein stability index for `FGPRLLRVMRLL`
(A) 0.157

###

protein stability index reference
Tested on: Saccharomyces cerevisiae
TEST_PROTOCOL: protein stability index of tFT-peptide fusion (C-terminal peptide) (PSI (0-1 scale)); higher = more stable (slower turnover)
CONDITION_NOTES: genetic background: doa10 deletion; temperature: 30 C
Returns: the value as a bare number; no unit string appended.

Previously resolved entries follow.
SCRCIIFVCCFW: 0.235
GLFAVWVVGVWC: 0.0955
SIRIIVVVRGAS: 0.393
YVIGLLFVVSGV: 0.229
FRVSAFFLPFLS: 0.226

(Q) // lookup protein stability index for `SVVFFYPPIFHA`
(A) 0.28

(Q) // lookup protein stability index for `CSVPLGVFAIVV`
(A) 0.347

(Q) // lookup protein stability index for `VVSLGGWCLYIY`
(A) 0.385

(Q) // lookup protein stability index for `PFFLLAGITVAC`
(A) 0.139

(Q) // lookup protein stability index for `FLFLLLFLLLCC`
(A) 0.349

(Q) // lookup protein stability index for `KKKKKKKIKIMS`
(A) 0.176

(Q) // lookup protein stability index for `GFYQSGGLVVVV`
(A) 0.482

(Q) // lookup protein stability index for `SSCLPAPPPLPL`
(A) 0.677

(Q) // lookup protein stability index for `LFPVFFPLFAPA`
(A) 0.206

###

protein stability index reference
Tested on: Saccharomyces cerevisiae
TEST_PROTOCOL: protein stability index of tFT-peptide fusion (C-terminal peptide) (PSI (0-1 scale)); higher = more stable (slower turnover)
CONDITION_NOTES: genetic background: doa10 deletion; temperature: 30 C
Returns: the value as a bare number; no unit string appended.

Previously resolved entries follow.
GCGFSFFHIVVL: 0.416
CFFFCSLFLSFL: 0.407
ISLSSLYVVMYV: 0.178
VVCLCEYRLHIF: 0.0658
RVFVGLVDFLFW: 0.37

(Q) // lookup protein stability index for `TLFSPPVLATPS`
(A) 0.513

(Q) // lookup protein stability index for `CPPPPPSLLLLC`
(A) 0.168

###

protein stability index reference
Test system: Saccharomyces cerevisiae
TEST_PROTOCOL: protein stability index of tFT-peptide fusion (C-terminal peptide) (PSI (0-1 scale)); higher = more stable (slower turnover)
CONDITION_NOTES: genetic background: doa10 deletion; temperature: 30 C
Returns: the value as a bare number; no unit string appended.

VFLDCCLRVFVD: 0.188

(Q) // lookup protein stability index for `FRLFSLWFCWVR`
(A) 0.365

(Q) // lookup protein stability index for `CFLLVSLGILCW`
(A) 0.0685

(Q) // lookup protein stability index for `SPPSFPPLLLLS`
(A) 0.326

(Q) // lookup protein stability index for `GLFLLWWLGWLV`
(A) 0.333

(Q) // lookup protein stability index for `SPSSLPRPLFLS`
(A) 0.138

(Q) // lookup protein stability index for `VEIKSKRMLVVI`
(A) 0.287

(Q) // lookup protein stability index for `SFFVCAGFWVLC`
(A) 0.248

(Q) // lookup protein stability index for `WFSVRQLVFVSG`
(A) 0.124

(Q) // lookup protein stability index for `CLCFFMSILWWV`
(A) 0.422

(Q) // lookup protein stability index for `NDSSWEVSLMVG`
(A) 0.614

Value source: the supplement of paper PMC10724198
